activity at 10 µM values, listed per item
System: T. cruzi (Tulahuen strain)
Assay: microbe, parasite or virus in culture
Assay type: cell-based, Trypanosoma cruzi
Conditions: Trypanosoma cruzi, TULAHUEN, Fibroblast, 120 h, 10 uM, Table S2; read-out: T. cruzi % growth @ 10 uM (Amastigotes)
Experimental: Compounds were tested against T. cruzi (Tulahuen strain) stably expressing the beta-galactosidase gene as previously described. […] Fibroblasts were plated at a density of 2×10^3 per well in 96 well tissue culture plates. […] Z-prime values were calculated for each 96-well plate based on positive (4 wells) and negative controls (4 wells).
Counter-ions that a name gives are not always drawn.
Answer shape: numeric part, then the unit.

Examples from the recorded data:
[
  {
    "COMPOUND": "C=CC(C1=CC(=O)C=CC1=O)c1ccccc1 (centres unmarked)",
    "TESTED TARGET": "T. cruzi (Tulahuen strain)",
    "activity at 10 µM": "12.4%"
  },
  {
    "COMPOUND": "CC(C)c1c(O)ccc2c1CCC1C(C)(C)CCCC21C (centres unmarked)",
    "TESTED TARGET": "T. cruzi (Tulahuen strain)",
    "activity at 10 µM": "21.3%"
  },
  {
    "COMPOUND": "Clc1ccc(COC(Cn2ccnc2)c2ccc(Cl)cc2Cl)cc1 (centres unmarked)",
    "TESTED TARGET": "T. cruzi (Tulahuen strain)",
    "activity at 10 µM": "2.4%"
  }
]

Request the reported activity at 10 µM associated with C=CC(C1=CC(=O)C(OC)=CC1=O)c1ccc(O)cc1 (centres unmarked) [DALBERGIONE, 4-METHOXY-4'-HYDROXY-]
5.1%

Request the reported activity at 10 µM associated with `COc1ccc(-c2cc(=O)c3ccccc3o2)cc1OC`
24%

Request the reported activity at 10 µM associated with CN1CCCC(n2nc(Cc3ccc(Cl)cc3)c3ccccc3c2=O)CC1 (centres unmarked) [AZELASTINE HYDROCHLORIDE]
1.5%

Request the reported activity at 10 µM associated with `O=C(CCCN1CCC2(CC1)C(=O)NCN2c1ccccc1)c1ccc(F)cc1`
17.1%

Request the reported activity at 10 µM associated with `COc1ccc2cc3[n+](cc2c1OC)CCc1cc2c(cc1-3)OCO2`
4.1%

---

System: T. cruzi (Tulahuen strain)
Assay: microbe, parasite or virus in culture
Format: cell-based, Trypanosoma cruzi
Details: Trypanosoma cruzi, TULAHUEN, Fibroblast, 120 h, 10 uM, Table S2; read-out: T. cruzi % growth @ 10 uM (Amastigotes)
READOUT NAME: activity at 10 µM (%)
Entry rule: numbers only, all in %.

Examples from the recorded data:
[
  {
    "COMPOUND": "CC1COC2=C1C(=O)C(=O)c1c2ccc2c1CCCC2(C)C (stereo not shown) [CRYPTOTANSHINONE]",
    "TESTED TARGET": "T. cruzi (Tulahuen strain)",
    "activity at 10 µM, %": 4.5
  },
  {
    "COMPOUND": "C=C(C)C1CCC2(CO)CCC3(C)C(CCC4C5(C)CCC(O)C(C)(C)C5CCC43C)C12 (stereo not shown) [BETULIN]",
    "TESTED TARGET": "T. cruzi (Tulahuen strain)",
    "activity at 10 µM, %": 9.7
  },
  {
    "COMPOUND": "CCCCCCCC/C=C/CCCCCCCCOP(=O)([O-])OCC[N+](C)(C)C [ELAIDYLPHOSPHOCHOLINE]",
    "TESTED TARGET": "T. cruzi (Tulahuen strain)",
    "activity at 10 µM, %": 5
  },
  {
    "COMPOUND": "CC1(C)C=CC(=O)C2(C)C1CC(=O)C1(C)C2CCC2(C)C(c3ccoc3)OC(=O)C3OC321 (stereo not shown) [DEACETOXY-7-OXISOGEDUNIN]",
    "TESTED TARGET": "T. cruzi (Tulahuen strain)",
    "activity at 10 µM, %": 3.9
  },
  {
    "COMPOUND": "O=c1cc(-c2cc(O)c(O)c(O)c2)oc2cc(O)cc(O)c12 [HIERACIN]",
    "TESTED TARGET": "T. cruzi (Tulahuen strain)",
    "activity at 10 µM, %": 6.5
  }
]

Request the reported activity at 10 µM associated with CN1CCC(=C2c3ccccc3CCc3sccc32)CC1 [PIZOTYLINE MALATE]
21.4

Request the reported activity at 10 µM associated with Cc1cccc2c3c(ccc12)C1=C(C(=O)C3=O)C(C)CO1 (stereo not shown) [DIHYDROTANSHINONE I]
4.8

Source: paper PMC4102417
